Cited source: patent US20260184782A1

Molecular target: T1, TIGIT (UniProt Q495A1 22-141, limits assumed)
T1 construct: construct not described; also called T cell immunoreceptor with Ig and ITIM domains
T1 sequence (looked up): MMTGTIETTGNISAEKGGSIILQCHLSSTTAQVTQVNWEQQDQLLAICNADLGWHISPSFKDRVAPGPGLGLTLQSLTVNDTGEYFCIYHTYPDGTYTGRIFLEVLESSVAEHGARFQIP
Assay: SPR, VHH-V5-His
Rule for this label: Condition met means RU is less than 200 RU; Condition not met means RU is at least 200 RU.

TIGIT-29-10 VHH-V5-His (VHH, not shown: V5 and His tags) VHH: EVQLVESGGGLVQAGGSLRLSCAASGRTFSNYGMGWFRQAPGKEREFVSGISGSGGRTSYADSVKGRFTISADNAKNTVYLQMNSLKPEDTAVYYCAANLWYPVDRLNTGFNYWGQGTQVTVSS ... Condition met
TIGIT-29-01 VHH-V5-His (VHH, not shown: V5 and His tags) VHH: EVQLVESGGGLVQAGGSLRLSCAASGRTFSNYAMGWFRQAPGKEREFVAAITWSGTRTDYADSVKGRFTISADNAKNTVYLQMNSLKPEDTAVYYCAAAAWTIYEYDYWGQGTQVTVSS ... Condition met
TIGIT-30-43 VHH-V5-His (VHH, not shown: V5 and His tags) VHH: EVQLVESGGGLVQAGGSLRLSCAASGFTFSTSWMGWFRQAPGKERELVAARNSGGNTNYADSVKGRFTISADNAKNTVYLQMNSLKPEDTAVYYCAADVWYGSTWRNWGQGTQVTVSS ... Condition not met
TIGIT-29-18 VHH-V5-His (VHH, not shown: V5 and His tags) VHH: EVQLVESGGGLVQAGGSLRLSCAASGSTFSNYAMGWFRQAPGKEREFVSAINSSGSRTYYADSVKGRFTISADNAKNTVYLQMNSLKPEDTAVYYCAARLWGTWTAGDYDYWGQGTQVTVSS ... Condition met
TIGIT-30-52 VHH-V5-His (VHH, not shown: V5 and His tags) VHH: EVQLVESGGGLVQAGGSLRLSCAASGRTFSNYFMGWFRQAPGKERESVATVTWRDNITYYADSVKGRFTISADNAKNTVYLQMNSLKPEDTAVYYCASAGRWGQGTQVTVSS ... Condition not met
TIGIT-30-40 VHH-V5-His (VHH, not shown: V5 and His tags) VHH: EVQLVESGGGLVQAGGSLRLSCAASGFTFSGNWMGWFRQAPGKEREWVVGISSGGSTHYADSVKGRFTISADNAKNTVYLQMNSLKPEDTAVYYCAADVWYGSTWRNWGQGTQVTVSS ... Condition met
TIGIT-30-49 VHH-V5-His (VHH, not shown: V5 and His tags) VHH: EVQLVESGGGLVQAGGSLRLSCAASGNIFSRYIMGWFRQAPGKEREWVAGISNGGTTKYADSVKGRFTISADNAKNTVYLQMNSLKPEDTAVYYCAQGWKIVPTNWGQGTQVTVSS ... Condition met
TIGIT-30-30 VHH-V5-His (VHH, not shown: V5 and His tags) VHH: EVQLVESGGGLVQAGGSLRLSCAASGGTFSGRGMGWFRQAPGKEREWVSSVYIFGGSTYYADSVKGRFTISADNAKNTVYLQMNSLKPEDTAVYYCANSNKPKFDWGQGTQVTVSS ... Condition met
TIGIT-29-22 VHH-V5-His (VHH, not shown: V5 and His tags) VHH: EVQLVESGGGLVQAGGSLRLSCAASGSILSSYTMGWFRQAPGKEREFVSTISRSSTRTYYADSVKGRFTISADNAKNTVYLQMNSLKPEDTAVYYCAARLWGTWTAGDYDYWGQGTQVTVSS ... Condition met
